These entries and their values trace back to patent US20110020218A1.

molecular target: human CXCR4 receptor (wild type) (human, UniProt P61073 1-352); assay: cell-based or functional assay
Sequence (P61073 whole entry): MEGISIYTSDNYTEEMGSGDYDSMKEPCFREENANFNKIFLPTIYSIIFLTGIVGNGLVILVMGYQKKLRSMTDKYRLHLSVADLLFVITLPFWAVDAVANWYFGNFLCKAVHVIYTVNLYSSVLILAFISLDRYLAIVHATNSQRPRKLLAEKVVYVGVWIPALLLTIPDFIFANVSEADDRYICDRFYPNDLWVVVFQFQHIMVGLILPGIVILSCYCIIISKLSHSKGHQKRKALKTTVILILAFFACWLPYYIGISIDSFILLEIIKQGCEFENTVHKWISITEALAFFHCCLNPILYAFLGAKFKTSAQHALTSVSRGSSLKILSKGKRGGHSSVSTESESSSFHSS
Overview of reported inhibition of SDF-1-induced BRET increase (CXCR4 homo-dimers) across a group of binders:
OBSERVATION TYPE: inhibition of SDF-1-induced BRET increase (CXCR4 homo-dimers) (%)

- BINDER: "anti-CXCR4 Mab 515H7 (antibody, V domains shown) VH: EVNLVESGGGLVQPGGSLRLSCATSGFTFTDNYMSWVRQPPGKALEWLGFIRNKANGYTTDYSASVRGRFTISRDNSQSILYLQMNALRAEDSATYYCARDVGSNYFDYWGQGTTLTVSS VL: DIVMSQSPSSLAVSAGEKVTMSCKSSQSLFNSRTRKNYLAWYQQKPGQSPKLLIYWASARDSGVPARFTGSGSETYFTLTISRVQAEDLAVYYCMQSFNLRTFGGGTKLEIK"
  READOUT VALUE: 69
- BINDER: "anti-CXCR4 chimeric Mab c414H5 (antibody, human IgG1, kappa, V domains shown, they may be whole chains; also called chimeric 414H5) VH: EVKLVESGGGLVQPGGSLRLSCTTSGFTFTDYYMSWVRQSPGKALEWLTFIRNKANGYTTEYSASVKGRFTISRDNSQSILYLQMNTLRAEDSATYYCARDIPGFAYWGQGTLVTVSA VL: DIVMSQSPSSLAVSAGEKVTMSCKSSQSLYNSRTRKNYLAWYQQKPGQSPKLLIYWASTRESGVPDRFTGSGSGTDFTLTITSVQAEDLAVFYCKQSYNLRTFGGGTKLEIKR"
  READOUT VALUE: 75
- BINDER: "anti-CXCR4 chimeric Mab c515H7 (antibody, human IgG1, kappa, V domains shown, they may be whole chains; also called chimeric 515H7) VH: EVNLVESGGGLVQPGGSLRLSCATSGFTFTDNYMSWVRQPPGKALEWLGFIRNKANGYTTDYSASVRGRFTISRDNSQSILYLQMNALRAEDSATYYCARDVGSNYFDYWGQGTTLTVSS VL: DIVMSQSPSSLAVSAGEKVTMSCKSSQSLFNSRTRKNYLAWYQQKPGQSPKLLIYWASARDSGVPARFTGSGSETYFTLTISRVQAEDLAVYYCMQSFNLRTFGGGTKLEIKR"
  READOUT VALUE: 96
- BINDER: "anti-CXCR4 Mab 414H5 (antibody, V domains shown) VH: EVKLVESGGGLVQPGGSLRLSCTTSGFTFTDYYMSWVRQSPGKALEWLTFIRNKANGYTTEYSASVKGRFTISRDNSQSILYLQMNTLRAEDSATYYCARDIPGFAYWGQGTLVTVSA VL: DIVMSQSPSSLAVSAGEKVTMSCKSSQSLYNSRTRKNYLAWYQQKPGQSPKLLIYWASTRESGVPDRFTGSGSGTDFTLTITSVQAEDLAVFYCKQSYNLRTFGGGTKLEIK"
  READOUT VALUE: 63
